target: récepteur des benzodiazépines; experiment: Displacement of 3H-flunitrazepam from its receptor in rat cortex tissue (in vitro); details: 3H-flunitrazépam 4 nM, cortex du Rat, 0°, 60 mn, pH 7,4
With a cut-off of 500 nM, any IC50 strictly below it is called 1; any IC50 meeting it or above is called -1.

molecule: CCNc1cc2c(cn1)[nH]c1ccccc12
label-class: 1

molecule: CS(=O)(=O)Nc1cc2c(cn1)[nH]c1ccccc12
label-class: -1

molecule: Nc1cc2c(cn1)[nH]c1ccccc12
label-class: -1

molecule: CCOC(=O)Nc1cc2c(cn1)[nH]c1ccccc12
label-class: 1

molecule: O=C(Nc1cc2c(cn1)[nH]c1ccccc12)C(F)(F)F
label-class: -1

molecule: CN1C(=O)CN=C(c2ccccc2F)c2cc([N+](=O)[O-])ccc21 [Flunitrazepam, reference compound]
label-class: 1

molecule: O=CNc1cc2c(cn1)[nH]c1ccccc12
label-class: -1

molecule: CC(=O)Nc1cc2c(cn1)[nH]c1ccccc12
label-class: -1

molecule: CCOC(=O)c1cc2c(cn1)[nH]c1ccccc12 [-CO2CH2CH3, reference compound]
label-class: 1

molecule: COC(=O)Nc1cc2c(cn1)[nH]c1ccccc12
label-class: 1
